Each entry below lists one item and its recorded Kd value.
- testSystem: T1, RSV F ectodomain stabilized in the postfusion conformation (F ΔFP), subtype B (Respiratory syncytial virus subtype B, UniProt P13843 26-109; P13843 147-524)
- T1 construct: extracellular domain; trimer; also called Postfusion subtype B
- assayExplanation: BLI, IgG on AHQ sensors, 100 nM antigen
parameterMeasured: Kd

>>> result("ADI-14552 (antibody, V domains shown, IgG) VH: EVQLLESGPELKKPGSSVKVSCKASADTFNGHSIAWVRQAPGQGLEWVGGFIPIFGKAYYAQNFQGTVTISADSSTRTVYMDLFNLRSEDTAVYYCARSRKNVIGDTSAWEHMYFYMDVWGTGTTVTVSS VL: EIVLTQSPGTLSLSPGERVTLSCRASESINKNTYLAWYQQKPGQAPRLLIYGASSRATGIPDRFSGSGSGTDFTLTISRLEPEDSAVYYCQQYGRSMTFGGGTKVEIK")
"1.11 nM"
>>> result("ADI-14536 (antibody, V domains shown, IgG; also called Antibody Number 96) VH: QVQLVQSGGGVVQPGRSLRLSCAASGFSFSSYGMHWVRQAPGKGLEWVAAIFYHEIKDYYADSVNGRFSISRDNSKNTLYLEMYSLKVEDTAVYYCARDSGTLTGLPHDAFDIWGQGTTVTVSS VL: DIQMTQSPSTLSASLGGRVTITCRASQSVTNRLAWYQHKPGKAPNLLIYKASTLEIGVPSRFSGSGSGTEFTLTISSLQPDDFATYYCQQYSSYSWTFGQGTKVEIK")
"0.382 nM"
>>> result("ADI-14526 (antibody, V domains shown, IgG; also called Antibody Number 86) VH: EVQLVESGPGLVRPSQTLSIKCSVSGGSINRGAYFWTWIRQRPGKGLEWIGSIHDTGSYYNPSLKTRVSISGDTSKNLFTLELTSLTAADTAVYYCARGRGYSYGWRYFDSWGQGTLVTVSS VL: SYVLTQPPSVSVSPGQTARITCSGDAFPRQYSYWYQQKAGQPPVLVILKDSERPSGIPARFSGSTSGTTVTLTITGVQAEDEADYYCQSSDSSGNYVVFGGGTKLTVL")
"0.342 nM"
>>> result("ADI-14537 (antibody, V domains shown, IgG; also called Antibody Number 97) VH: EVQLVESGGGLVKPGGSLRLSCAASGFIFRNAWMSWVRQAPGKGLEWVGRIKRTSEGGSVDYATPVQGRFSISRDDSRKTLYLQMNSLETDDTAVYYCSTGPPYSYFDSSGYSVVDYWGLGTLVTVSS VL: QPVLTQPPSASGTPGQRVTISCSASSSNIGDNYFYWYQQLPGKAPTLLMYGSDQRSSGVPDRFSGSQSGTSASLAISGLRSEDEADYYCAAWDDSLSGPVFGGGTKLTVL")
"0.142 nM"
>>> result("ADI-14546 (antibody, V domains shown, IgG) VH: QVQLVQSGAEVKKPGSSVKVSCTASGGSFSTNSIAWLRQTPREGLEWMGGIIPVFGAAKYAQKFQGRVTISADASTTTAYLELHNLRSEDTAVYYCARGISPRTNSDWNHNYFYYYMDVWGKGTTVTVSS VL: ETTLTQSPGTLSLSPGERATLSCRASQSIFTIYLAWYQQKPGQAPRLLIYSASNRATGIPDRFSGSGSGTDFTLTISSLEPEDFAVYYCHHYGTSPHTFGQGTRLEIK")
"0.472 nM"
